Tested on: CAKI-1 renal
Assay notes: NCI tumour cell line growth inhibition, 48 h

Molecule	TGI
Oc1cccnc1[Se]	> 100 µM
O=C1/C(=C/c2cccc(Cl)c2Cl)N=C(c2ccccc2)N1C1CC1	39.5 µM
CCCCCCc1cc2cc(C(=O)Nc3ccccc3)c(=N)oc2cc1O	> 100 µM
COc1ccc(NC(=O)/C(Cc2cc(=O)oc3cc(O)ccc23)=N\NC(C)(C)C)c(OC)c1	> 100 µM
COc1ccc(/C=C2/N=C(c3ccccc3)N(c3c(C)n(C)n(-c4ccccc4)c3=O)C2=O)cc1OC	> 100 µM
O=C(O)[C@@H]1CCS(=O)(=O)N1	> 100 µM
CN1C(=O)N(C)C2C1NN=c1s/c(=C\c3ccc(Cl)cc3Cl)c(=O)n12 (configuration not stated)	> 62.3 µM
O=C1/C(=C/c2ccc(Cl)cc2)CCC1CCN1CCOCC1 (configuration not stated)	> 100 µM
CC(C)(C)c1ccc(O)c(C(O)c2ccncc2)c1 (configuration not stated)	> 100 µM
CN(C)CCCN1CCC2(CCC(C(C)(C)C)CC2)CC1	7.55 µM
CCOC1OC(=O)c2cc3ccc4c(c3c(-c3ccc5c(c3)OCO5)c21)OCO4 (configuration not stated)	> 100 µM
CCCCCCOC(=O)/C=C/[C@]1(CO)C/C(=C/CC(C(C)C)C(C)C)C(=O)O1	23.7 µM
CCCNC(=S)NNC(=O)CSc1nc(-c2ccccc2)c(-c2ccccc2)[nH]1	94.6 µM
COc1ccc(C(OCC2OC(n3cc(C)c(=O)[nH]c3=O)CC2n2cc(Cn3cc(Cl)c(=O)[nH]c3=O)nn2)(c2ccccc2)c2ccccc2)cc1 (configuration not stated)	> 100 µM
O=C(Nc1nc(C23CC4CC(CC(C4)C2)C3)cs1)c1cc2ccc(O)cc2oc1=O	> 100 µM
Nc1c(C(=O)Nc2ccncc2)sc2nc3c(cc12)CCCCCCCC3	1.49 µM
Cc1cc(Cl)ccc1NC(=O)C(=O)Cc1nc2ccccc2o1	> 100 µM
O=c1c(/C=C/c2c(O)ccc3ccccc23)nnc2sc(-c3cccc(Br)c3)nn12	56.8 µM
NC(=O)C(C(N)=O)=C(O)C(=O)/C=C(\O)c1ccccc1	> 100 µM
CCOC(=O)C(Cc1ccc(CCCC(=O)NCCC(=O)Nc2ccc3nc(C)sc3c2)cc1)C(=O)OCC	> 100 µM
CN1CCN(C(=S)N2CCN(C)CC2)CC1	> 100 µM
CN(CC(=O)O)c1ncc2c(n1)CCCC2	> 100 µM

----------
Tested on: NCI-H226 lung
Assay notes: NCI tumour cell line growth inhibition, 48 h; in the data active means GI50 below about 0.43 µM; inactive means the rest
Possible outcomes: y for active, n for inactive

> print(dat)
                                    compound  tested.system  category
 1  Cc1ccc(NC(=O)CC2CC2)cc1-c1ccc(C(=O)NCC2CC2)cc1  NCI-H226 lung         n
 2  CC(C)Oc1ccc2cc(-c3nn(CC4CCNCC4)c4ncnc(N)c34)ccc2c1  NCI-H226 lung         n
 3  CO/N=C(\COc1ccc2c(c1)oc(=O)c1cc(OC)ccc12)c1ccc(OC)cc1  NCI-H226 lung         n
 4  CN1C(=O)N(C)C2C1NN=c1s/c(=C\c3ccc(Cl)cc3Cl)c(=O)n12 (stereo not given)  NCI-H226 lung         n
 5  Cc1ncc(C(=O)Nc2ccc(CN3CCN(C)CC3)c(C(F)(F)F)c2)cc1C#Cc1cnc(N)c2ccncc12  NCI-H226 lung         n
 6  C=C(C)[C@@H]1CC[C@]2(C)[C@H](CC=C3[C@@H]4CC(C)(C)CC[C@]4(C(N)=O)CC[C@]32C)[C@@]1(C)CCC#N  NCI-H226 lung         n
 7  CCC(/C=C/C1OC(=O)C=CC1C)=C\C(C)C/C=C/C(C)=C/C(C)C(=O)C(C)C(O)C(C)C/C(C)=C/C(=O)O (stereo not given)  NCI-H226 lung         y
 8  CCSc1ncnc2c1ncn2C1OC(CO)C(O)C1O (stereo not given)  NCI-H226 lung         n
 9  O=C1OCC2=C1C(c1cccc(Br)c1)c1cc3c(cc1N2CCO)CCC3 (stereo not given)  NCI-H226 lung         y
10       COc1ccc(Nc2nnc(-c3cc(O)ccc3O)s2)cc1  NCI-H226 lung         n
11  C#C[C@]1(O)CCC2C3CCc4cc(O)ccc4C3CC[C@@]21C (stereo not given in full)  NCI-H226 lung         n
12  O=C(Nc1ccncc1)C(=O)c1cn(S(=O)(=O)c2ccc(F)cc2)c2ccccc12  NCI-H226 lung         n
13  COc1cc2c(cc1OCCCNC(=O)c1cccc3c(=O)c4ccccc4[nH]c13)N=C[C@@H]1CCCN1C2=O  NCI-H226 lung         y
14              Oc1cc2cccc[n+]2c2cc(Cl)ccc12  NCI-H226 lung         n
15  CS(=O)(=O)CCNCc1nc(-c2ccc3ncnc(Nc4ccc(OCc5cccc(C(F)(F)F)c5)cc4)c3c2)cs1  NCI-H226 lung         n
16  CCCN1C(=O)N(CCC)C2C1NC(=S)N2/N=C/C=C/c1ccccc1OC (stereo not given)  NCI-H226 lung         n
17             [Cl][Hg][c]1cc[c]([Hg][Cl])o1  NCI-H226 lung         n
18  C=C(C)[C@@H]1CC[C@]2(C(=O)NC3CCCCC3)CC[C@]3(C)[C@H](CC[C@@H]4[C@@]5(C)CCCNC(C)(C)[C@@H]5CC[C@]43C)[C@@H]12  NCI-H226 lung         n
19  CNCC#Cc1c(F)ccc2c1/C(=C/c1[nH]ccc1OC)C(=O)N2  NCI-H226 lung         y
20  Cn1cc(-c2csc(-c3c[nH]c4ccc(F)cc34)n2)c2cnccc21  NCI-H226 lung         n

----------
System: NCI-H522 lung
Assay notes: NCI tumour cell line growth inhibition, 48 h; in the data active = GI50 below about 0.43 µM; inactive = the rest
Classes used: active, inactive

Compound	Category
Cc1ncc(C(=O)Nc2ccc(CN3CCN(C)CC3)c(C(F)(F)F)c2)cc1C#Cc1cnc(N)c2ccncc12	inactive
COc1cc(F)ccc1-c1ncnc(Nc2cccc(CS(C)(=N)=O)c2)n1 (stereo unspecified)	inactive
O=c1cc(-c2cccc3ccccc23)[nH]c2ncccc12	active
Cn1cc(-c2csc(-c3c[nH]c4ccc(F)cc34)n2)c2cnccc21	inactive
CCOC(=O)C(Cc1ccc(CCCC(=O)NCCC(=O)Nc2ccc3nc(C)sc3c2)cc1)C(=O)OCC	inactive
Oc1cc2cccc[n+]2c2cc(Cl)ccc12	inactive
O=C1Nc2ccccc2/C1=N\[O-].O=C1Nc2ccccc2/C1=N\[O-].[Cu+2]	inactive
O=C(c1ccccc1)c1cc2ccccc2o1	inactive
CCSc1ncnc2c1ncn2C1OC(CO)C(O)C1O (stereo unspecified)	inactive
COc1c(OC[C@H](O)CN2CCOCC2)ccc2c3n(c(=NC(=O)c4cccnc4C)nc12)CCN3	inactive
[Cl][Hg][c]1cc[c]([Hg][Cl])o1	active
CCn1c2ccccc2c2cc(NC(=O)Nc3ccc([N+](=O)[O-])cc3C)ccc21	inactive
CO/N=C(\COc1ccc2c(c1)oc(=O)c1cc(OC)ccc12)c1ccc(OC)cc1	inactive
O=C(N[C@@H](c1ccc(Cl)c(Cl)c1)C1CNC1)c1ccc2cnccc2c1	inactive
O=C1/C(=C/c2cccc(Cl)c2Cl)N=C(c2ccccc2)N1C1CC1	inactive
CCCN1C(=O)N(CCC)C2C1NC(=S)N2/N=C/C=C/c1ccccc1OC (stereo unspecified)	active
NCCNc1c2c(c(NCCN)c3[nH]ccc13)C(=O)c1ccccc1C2=O	inactive
COc1cccc2c1C(=O)c1c(O)c3c(c(O)c1C2=O)C[C@](O)(C(=O)CO)C[C@H]3O[C@@H]1C[C@@H](NC(=O)CCCCCN(C)C2(c3ccc(F)cc3)CC3CCC2C3)[C@H](O)[C@@H](C)O1 (stereo partly specified)	inactive
COc1cc(-c2cc(-c3cc4c([nH]c5ccccc54)c(-c4cc(OC)c(OC)c(OC)c4)n3)cc(-c3ccccc3)n2)cc(OC)c1OC	inactive
Clc1ccc2[nH]cc(-c3nnnn3-c3ccccc3)c2c1	inactive
COc1ccc(Nc2nnc(-c3cc(O)ccc3O)s2)cc1	inactive

----------
Tested on: NCI-H460 lung
Assay notes: NCI tumour cell line growth inhibition, 48 h; in the data active = GI50 below about 0.43 µM; inactive = the rest
Possible outcomes: yes (1) (active), no (0) (inactive)

> print(dat)
                                    compound  category
 1  COc1ccc(/C=C2/N=C(c3ccccc3)N(c3c(C)n(C)n(-c4ccccc4)c3=O)C2=O)cc1OC    no (0)
 2  C=C(C)[C@@H]1CC[C@]2(C)[C@H](CC=C3[C@@H]4CC(C)(C)CC[C@]4(C(N)=O)CC[C@]32C)[C@@]1(C)CCC#N    no (0)
 3  Cc1ncc(C(=O)Nc2ccc(CN3CCN(C)CC3)c(C(F)(F)F)c2)cc1C#Cc1cnc(N)c2ccncc12    no (0)
 4  O=C1/C(=C/c2cccc(Cl)c2Cl)N=C(c2ccccc2)N1C1CC1    no (0)
 5  CCOC(=O)Nc1ccc(-c2nc(-c3cccc(OCCN4CCOCC4)c3)c(-c3ccnc(Br)c3)[nH]2)cc1    no (0)
 6  CCn1c2ccccc2c2cc(NC(=O)Nc3ccc([N+](=O)[O-])cc3C)ccc21    no (0)
 7  CN(C)CC[PH+](c1ccccc1)c1ccccc1.CN(C)CC[PH+](c1ccccc1)c1ccccc1.[Cl-].[Pd+2]    no (0)
 8             [Cl][Hg][c]1cc[c]([Hg][Cl])o1    no (0)
 9  O=C(N[C@@H](c1ccc(Cl)c(Cl)c1)C1CNC1)c1ccc2cnccc2c1   yes (1)
10  O=C(CSc1nc2ccccc2nc1-c1ccccc1)Nc1ccc(F)cc1    no (0)
11  COc1ccc2[nH]cc(C3(c4c[nH]c5ccc(OC)cc45)C(=O)Nc4ccc(F)cc43)c2c1    no (0)
12  CCCN1C(=O)N(CCC)C2C1NC(=S)N2/N=C/C=C/c1ccccc1OC (configuration not stated)   yes (1)

Source listed as PubChem BioAssay (NCI).
